# measured-on: recombinant human DHFR (Homo sapiens)
# Sequence (P00374 1-187): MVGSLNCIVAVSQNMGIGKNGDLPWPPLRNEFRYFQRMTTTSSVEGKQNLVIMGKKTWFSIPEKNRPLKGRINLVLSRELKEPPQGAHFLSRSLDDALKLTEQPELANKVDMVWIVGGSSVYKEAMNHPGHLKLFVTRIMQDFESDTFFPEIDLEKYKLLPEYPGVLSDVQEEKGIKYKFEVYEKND
# experiment: Dihydrofolate reductase
pIC50: −log10 of the molar value.
readout-name: pIC50

# annotated cases, reported pIC50 shown
stdin: Request the reported pIC50 associated with COc1cccc2c1C(=O)c1c(O)c3c(c(O)c1C2=O)C[C@@](O)(C(=O)CO)C[C@@H]3O[C@H]1C[C@H](N)[C@H](O)[C@H](C)O1 [DOX, doxorubicin, reference compound]
stdout: 5.08

stdin: Request the reported pIC50 associated with O=C(O)C(/C=C/c1c(Cl)cccc1Cl)=N\Nc1nc(-c2ccc(Cl)cc2)cs1
stdout: 4.27

stdin: Request the reported pIC50 associated with COc1ccc(-c2csc(N/N=C(/C=C/c3ccc(Cl)cc3)C(=O)O)n2)cc1
stdout: 4.40

(1) O=C(O)C(/C=C/c1ccc(Cl)cc1)=N\Nc1nc(-c2ccc(Br)cc2)cs1
(2) O=C(O)C(/C=C/c1c(Cl)cccc1Cl)=N\Nc1nc(-c2ccccc2)cs1
stdin: // select label with min value of measured pIC50 from [ 1 , 2 ] # reply format: chosen label
stdout: 1

(A) O=C(O)C(/C=C/c1ccc(Cl)cc1)=N\Nc1nc(-c2ccc([N+](=O)[O-])cc2)cs1
(B) O=C(O)C(/C=C/c1ccc(Cl)cc1)=N\Nc1nc(-c2ccc(F)cc2)cs1
stdin: Compare A and B by numeric pIC50 and name the larger one. # reply format: chosen label
stdout: A

(a) O=C(O)C(/C=C/c1c(Cl)cccc1Cl)=N\Nc1nc(-c2ccc(F)cc2)cs1
(b) Cc1ccc(-c2csc(N/N=C(/C=C/c3c(Cl)cccc3Cl)C(=O)O)n2)cc1
(c) O=C(O)C(/C=C/c1ccc(Cl)cc1)=N\Nc1nc(-c2ccccc2)cs1
(d) COc1ccc(-c2csc(N/N=C(/C=C/c3c(Cl)cccc3Cl)C(=O)O)n2)cc1
stdin: Let's sort these by pIC50, smallest first. Go ahead? Give the order by naming the labels one after another as requested.
stdout: a, d, b, c
(a: 4.21, d: 4.51, b: 4.74, c: 7.10)
